# System: Saccharomyces cerevisiae
# experimental-protocol: protein stability index of tFT-peptide fusion (C-terminal peptide) (PSI (0-1 scale)); higher = more stable (slower turnover)
# condition-label: genetic background: das1 deletion; temperature: 37 C
metric: protein stability index

entry_sequence=RMCPWVSVRVGV reported_value=0.592
entry_sequence=FLAFSYIRLLFF reported_value=0.613
entry_sequence=YLMVSKMSLRIG reported_value=0.609
entry_sequence=GLAVLSWLYIEL reported_value=0.598

* * *

Each entry below carries its reported protein stability index.
# System: Saccharomyces cerevisiae
# experimental-protocol: protein stability index of tFT-peptide fusion (C-terminal peptide) (PSI (0-1 scale)); higher = more stable (slower turnover)
# condition-label: genetic background: das1 deletion; temperature: 30 C
metric: protein stability index

entry_sequence="LDAENNNKCSIM [RHB1 C-terminal 12 aa]" reported_value=0.719
entry_sequence="KKHSMKSRFKPY [YNL035C C-terminal 12 aa]" reported_value=0.696
entry_sequence="RELWDEEKEIVL [KES1 C-terminal 12 aa]" reported_value=0.704
entry_sequence="ETRASCLLSRAF [YJL052C-A C-terminal 12 aa]" reported_value=0.696
entry_sequence="YPKFIKGHEEYF [BSC6 C-terminal 12 aa]" reported_value=0.702
entry_sequence="GFIRGSNKFAEV [SMC3 C-terminal 12 aa]" reported_value=0.687
entry_sequence="ELTFDVKLVSMK [FPR4 C-terminal 12 aa]" reported_value=0.686
entry_sequence="TSPPEGMEPKHW [SGT1 C-terminal 12 aa]" reported_value=0.696
entry_sequence="IKELENSRHEQS [MNN1 C-terminal 12 aa]" reported_value=0.713
entry_sequence="GDEEDPNEEAAF [RPC31 C-terminal 12 aa]" reported_value=0.692
entry_sequence="SRTPPARRQRHR [CWC22 C-terminal 12 aa]" reported_value=0.713
entry_sequence="PSAYVLFYERIF [UBP5 C-terminal 12 aa]" reported_value=0.71
entry_sequence="YNPPDYEPEAKK [PHM7 C-terminal 12 aa]" reported_value=0.7
entry_sequence="YASRGTGELWSP [NMD4 C-terminal 12 aa]" reported_value=0.703
entry_sequence="KKKEDKGGLQRS [VHS3 C-terminal 12 aa]" reported_value=0.684
entry_sequence="AIRTRKFDNNKR [RED1 C-terminal 12 aa]" reported_value=0.716
